# System: UACC-257 melanoma
# protocol description: NCI tumour cell line growth inhibition, 48 h; in the data active means GI50 below about 0.43 µM; inactive means the rest
# valid calls are active, inactive; nothing else

Q. Each compound tested received a call. Report the one for `COc1ccc(C(=O)/C=C/c2ccc(OCc3cccc(C(F)(F)F)c3)c(OC)c2)cc1OC` .
A. inactive

Q. Recorded test outcome, item `NS(=O)(=O)c1ccc(-n2nc3c(c2-c2cccs2)Cc2ccccc2-3)cc1`
A. inactive

Q. Look up the recorded call for NC1CC(=O)c2c(-c3cccs3)sc(-c3cccs3)c21 (centres undefined) in this test.
A. inactive

Q. Could you check what this test reported for `CN1CCN(Cc2ccc(NC(=O)c3cncc(C#Cc4ccc(N)nc4)c3)cc2C(F)(F)F)CC1` ?
A. inactive

Q. I would be grateful if you could indicate the recorded call for `O=C1/C=C/[C@@H](O)[C@@H]2C[C@@H](O)C[C@H]2/C=C/CCC[C@H](CCO)O1` .
A. active

Q. What did the test return for `C=CCc1c(O)c(C(=O)/C=C/c2ccc(Cl)cc2)c(OC)c2ccoc12` ?
A. inactive

Q. Status in this test for `Cc1nnc(N/N=C/c2ccc([N+](=O)[O-])o2)[nH]c1=O` ?
A. active

Q. Which outcome was entered for the compound O=C1C=CC2C3C(=O)N(c4ccccc4)C(=O)C3C1N2Cc1ccccc1 (centres undefined) in this test?
A. inactive

Q. Would you mind telling me which call this test gave `COc1c(C(N)=O)cc(-c2ccc(Cl)cc2)cc1-c1ccc(S(N)(=O)=O)cc1` ?
A. inactive

Q. Test call for this compound, please: `CCOC(=O)N1CCC(N=C2CSc3nnc(-c4cc(C(F)(F)F)cc(C(F)(F)F)c4)n3N2)CC1`
A. inactive

Q. Recorded call for `COc1ccc2c3ccnc(C(F)(F)F)c3n(CCCCN)c2c1` ?
A. inactive

Q. What did the test return for `Nc1ccc(C#Cc2ccccc2C#CCCCCO)cc1` ?
A. inactive

Q. Which outcome was entered for the compound `C[C@@H]1CC[C@@H]2[C@@H]1[C@H](OC(=O)/C=C/C1CCCCC1)[C@]1(C3CCCCC3)C[C@@H](OC(=O)CO)[C@@]2(C)O1` in this test?
A. inactive

Q. Which outcome was assigned to O=C1C2=C(C(=O)c3ccccc31)C(O)(S(=O)(=O)O)C(O)(S(=O)(=O)O)C1N=CC=CC21 (centres undefined) in this test?
A. inactive

Data origin: PubChem BioAssay (NCI)
